Target: Axl (UniProt P30530)
Sequence (P30530 26-451 limits assumed): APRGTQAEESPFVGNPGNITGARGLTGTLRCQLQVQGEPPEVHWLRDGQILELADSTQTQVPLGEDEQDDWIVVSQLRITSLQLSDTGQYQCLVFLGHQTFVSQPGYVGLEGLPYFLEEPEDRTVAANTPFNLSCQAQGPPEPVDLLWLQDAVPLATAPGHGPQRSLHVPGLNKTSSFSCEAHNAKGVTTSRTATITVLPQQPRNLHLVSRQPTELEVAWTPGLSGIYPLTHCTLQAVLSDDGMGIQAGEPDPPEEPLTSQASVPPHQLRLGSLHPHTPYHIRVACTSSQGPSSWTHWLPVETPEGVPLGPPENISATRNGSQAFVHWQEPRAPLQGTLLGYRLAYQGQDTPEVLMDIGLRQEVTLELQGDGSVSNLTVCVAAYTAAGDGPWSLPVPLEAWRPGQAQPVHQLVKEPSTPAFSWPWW
Assay: ELISA, 1:3 dilution
Reported Affinity ELISA CPE mutant ratio (1:3, pH 6.0/7.4) values are given for each entry in this list.

Reference set (2 entries):
| Binder | Reported |
| --- | --- |
| HC-M107F (antibody, V domains shown) VH: EVQLVQSGAEVKKPGATVKISCKVSGYSFTGHTMNWIRQPPGKGLEWIGLIKPSNGGTSYNQKFKGRVTISADKSISTAYLQWSSLKASDTAMYYCAHGHYESYFAFDYWGQGTLVTVSS VL: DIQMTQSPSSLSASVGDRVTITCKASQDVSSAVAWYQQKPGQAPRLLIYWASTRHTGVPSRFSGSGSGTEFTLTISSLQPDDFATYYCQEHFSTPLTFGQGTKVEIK | 20.6 |
| LC-H091L (antibody, V domains shown) VH: EVQLVQSGAEVKKPGATVKISCKVSGYSFTGHTMNWIRQPPGKGLEWIGLIKPSNGGTSYNQKFKGRVTISADKSISTAYLQWSSLKASDTAMYYCAHGHYESYFAMDYWGQGTLVTVSS VL: DIQMTQSPSSLSASVGDRVTITCKASQDVSSAVAWYQQKPGQAPRLLIYWASTRHTGVPSRFSGSGSGTEFTLTISSLQPDDFATYYCQELFSTPLTFGQGTKVEIK | 2.8 |

Note: attention shifts to another entry.
input: Given the binder HC-S103N (antibody, V domains shown) VH: EVQLVQSGAEVKKPGATVKISCKVSGYSFTGHTMNWIRQPPGKGLEWIGLIKPSNGGTSYNQKFKGRVTISADKSISTAYLQWSSLKASDTAMYYCAHGHYENYFAMDYWGQGTLVTVSS VL: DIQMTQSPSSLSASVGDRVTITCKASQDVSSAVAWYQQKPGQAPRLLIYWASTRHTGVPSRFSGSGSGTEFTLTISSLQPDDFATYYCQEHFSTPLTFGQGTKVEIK , write its reported Affinity ELISA CPE mutant ratio (1:3, pH 6.0/7.4).
output: 1.07
